Test system: barnyardgrass (Echinochloa crus-galli)
assay_remarks: Test A postemergence
Format: in vivo
condition_set: 500 g ai/ha, postemergence; 0 to 100 scale, 0 no effect, 100 complete control
// Plant response rating, Barnyardgrass lookup, one value per entry
// response body must contain only the number

Fill in: barnyardgrass (Echinochloa crus-galli) Plant response rating, Barnyardgrass for CN1CC(c2ccc(Cl)cc2)C(C(=O)Nc2ccc(F)cc2F)C1=O (centres unmarked) [Compound 436] = 90

Fill in: barnyardgrass (Echinochloa crus-galli) Plant response rating, Barnyardgrass for O=C(Nc1ccccc1F)C1C(=O)N(c2ccccc2)CC1c1cccc(C(F)(F)F)c1 (centres unmarked) [Compound 456] = 0

Fill in: barnyardgrass (Echinochloa crus-galli) Plant response rating, Barnyardgrass for CN1CC(c2ccc(Cl)cc2)C(C(=O)Nc2ccccc2S(C)(=O)=O)C1=O (centres unmarked) [Compound 435] = 90

Fill in: barnyardgrass (Echinochloa crus-galli) Plant response rating, Barnyardgrass for CN1CC(c2ccc(F)cc2)C(C(=O)Nc2ccccc2F)C1=O (centres unmarked) [Compound 437] = 90

###

System: foxtail, giant (giant foxtail, Setaria faberii)
assay_remarks: Test C preemergence
Format: in vivo
condition_set: 31 g ai/ha, 0 is no effect, 100 is complete control
Description: […]
measure: Plant response rating (scale of 0 to 100), Foxtail, Giant
// response body must contain only the number

The examples below pair each entry with its known result.
Lab note: O=C1NCC(c2cc(F)cc(C(F)(F)F)c2)C1C(=O)Nc1cccc(F)c1F (centres unmarked) gave Plant response rating (scale of 0 to 100), Foxtail, Giant of 85

Lab note: O=C1NCC(c2cccc(OC(F)(F)C(F)F)c2)C1C(=O)Nc1ccc(F)c(F)c1F (racemic) gave Plant response rating (scale of 0 to 100), Foxtail, Giant of 85

Lab note: CN1CC(c2ccc(F)c(F)c2)C(C(=O)Nc2ccccc2C(F)(F)F)C1=O (centres unmarked) gave Plant response rating (scale of 0 to 100), Foxtail, Giant of 90

Further cases:
Lab note: O=C1NCC(c2cccc(OC(F)(F)C(F)F)c2)C1C(=O)Nc1cccc(F)c1F (racemic) gave Plant response rating (scale of 0 to 100), Foxtail, Giant of 85

Lab note: `CN1C[C@H](c2ccc(C(F)(F)F)cc2)[C@@H](C(=O)Nc2cccc(F)c2F)C1=O` gave Plant response rating (scale of 0 to 100), Foxtail, Giant of 90

###

// pest or weed control at 250 g/ha lookup, one value per entry
System: ducksalad (Heteranthera limosa)
assay_remarks: Test B flooded paddy test
Format: in vivo
condition_set: Heteranthera limosa, 250 g ai/ha, Flood; 0 to 100 scale where 0 is no effect and 100 is complete control; read-out: Ducksalad plant response rating
Method: Plant species in the flooded paddy test selected from rice (Oryra sativa), sedge, umbrella (small-flower umbrella sedge, Cyperus difformis), ducksalad (Heteranthera limosa), and barnyardgrass (Echinochloa crus-galli) were grown to the 2-leaf stage for testing. […] Treated plants and controls were maintained in a greenhouse for 13 to 15 d, after which time all species were compared to controls and visually evaluated. […]
Provide only the numeric value, understood in %.

The examples below pair each entry with its known result.
Fill in: ducksalad (Heteranthera limosa) pest or weed control at 250 g/ha for `O=C1NC[C@H](c2csc(C(F)F)c2)[C@H]1C(=O)Nc1cccc(F)c1F` = 100

Fill in: ducksalad (Heteranthera limosa) pest or weed control at 250 g/ha for O=C1NC[C@H](c2cccc(C(F)(F)F)c2)C1C(=O)Nc1c(F)cccc1CO (some centres unmarked) = 0

Fill in: ducksalad (Heteranthera limosa) pest or weed control at 250 g/ha for `CN1C[C@H](c2ccc(C(F)(F)F)cc2)[C@@H](C(=O)Nc2ccccc2-n2cncn2)C1=O` = 0

Fill in: ducksalad (Heteranthera limosa) pest or weed control at 250 g/ha for `CN1C[C@H](c2ccc(F)c(C#N)c2)[C@@H](C(=O)Nc2cccc(F)c2F)C1=O` = 100

Fill in: ducksalad (Heteranthera limosa) pest or weed control at 250 g/ha for CN1C[C@H](c2ccc(C(F)(F)F)cc2)[C@@](F)(C(=O)Nc2cccc(F)c2F)C1=O (racemic) = 0

Fill in: ducksalad (Heteranthera limosa) pest or weed control at 250 g/ha for `CC(C)COc1cccc([C@H]2CN(C)C(=O)[C@@H]2C(=O)Nc2ccccc2F)c1` = 80

Fill in: ducksalad (Heteranthera limosa) pest or weed control at 250 g/ha for `Cc1c(F)cccc1NC(=O)[C@H]1C(=O)N(C)C[C@@H]1c1ccc(C(F)(F)F)nc1` = 100

For the next question, use this molecule.
Fill in: ducksalad (Heteranthera limosa) pest or weed control at 250 g/ha for `CN1C[C@H](c2csc3c2CCCC3)[C@@H](C(=O)Nc2cccc(F)c2F)C1=O` = 90

###

// Plant response rating, Corn lookup, one value per entry
Tested on: corn (Zea mays)
assay_remarks: Test A postemergence
Assay type: in vivo
condition_set: Postemergence, 500 g ai/ha; 0 to 100 scale where 0 is no effect and 100 is complete control
// response body must contain only the number

The examples below pair each entry with its known result.
Lab note: CN1CC(c2cccc(C(F)(F)F)c2)C(C(=O)Nc2ccc(F)cc2F)C1=O (stereo not drawn) [Compound 571] gave Plant response rating, Corn of 80

Lab note: O=C1NCC(c2c(F)cccc2F)C1C(=O)Nc1ccc(F)cc1F (racemic) [Compound 517] gave Plant response rating, Corn of 0

For the next question, use this compound.
Lab note: CN1CC(c2cccc(OC(F)(F)C(F)F)c2)C(C(=O)Nc2ccccc2F)C1=O (stereo not drawn) [Compound 539] gave Plant response rating, Corn of 90

###

Test system: giant foxtail (Setaria faberi)
assay_remarks: Test G Post-Emergence Protocol
Assay type: in vivo
condition_set: Setaria faberi, post-emergence, 312 h, 15.625 g ai/ha, evaluated after 13 days (100=total damage to plant; 0=no damage to plant), read-out: Foxtail, Giant damage rating
From the text: Seeds of corn (Zea mays), giant foxtail (Setaria faberi), barnyardgrass (Echinochloa crus-galli), ivy-leaved morning glory (Ipomoea hederacea), redroot pigweed (Amaranthus retroflexus) and velvetleaf (Abutilon theophrasti) were sown in standard soil in pots. […]
measure: pest or weed control at 15.625 g/ha (%)
Provide only the numeric value, understood in %.

The examples below pair each entry with its known result.
Lab note: CN1C[C@H](c2ccc3occc3c2)[C@@H](C(=O)Nc2cccc(F)c2F)C1=O (racemic) gave pest or weed control at 15.625 g/ha of 40

Lab note: COc1cc(NC(=O)[C@@H]2C(=O)N(C)C[C@H]2c2ccc(C(F)(F)F)cc2)ccn1 (racemic) gave pest or weed control at 15.625 g/ha of 0

Lab note: CN1C[C@H](c2ccc(C(F)(F)F)cc2)[C@@H](C(=O)Nc2cccc3ccsc23)C1=O (racemic) gave pest or weed control at 15.625 g/ha of 0

Further cases:
Lab note: CN1C[C@@H](c2ccc(Cl)nc2)[C@H](C(=O)Nc2cccc(F)c2F)C1=O (racemic) gave pest or weed control at 15.625 g/ha of 0

Lab note: CN1C[C@H](c2ccc(C(F)(F)F)cc2)[C@@H](C(=O)Nc2cc(C#N)ccn2)C1=O (racemic) gave pest or weed control at 15.625 g/ha of 0

Lab note: CN1CC(c2ccc(Cl)c([N+](=O)[O-])c2)C(C(=O)Nc2cccc(F)c2F)C1=O (stereo not shown) gave pest or weed control at 15.625 g/ha of 70

Lab note: Cc1cc(C#N)cc(C2CN(C)C(=O)C2C(=O)Nc2cccc(F)c2F)c1 (stereo not shown) gave pest or weed control at 15.625 g/ha of 60

###

// pest or weed control at 500 g/ha lookup, one value per entry
Test system: giant foxtail (Setaria faberii)
assay_remarks: Test A postemergence
Format: in vivo
condition_set: Setaria faberi, post-emergence, 240 h, 500 g ai/ha, postemergence; 0 to 100 scale, 0 is no effect, 100 is complete control; read-out: Foxtail, Giant plant response rating
Answer shape: numeric part, then the unit.

The examples below pair each entry with its known result.
Fill in: giant foxtail (Setaria faberii) pest or weed control at 500 g/ha for Cc1nc([C@H]2CNC(=O)[C@@H]2C(=O)Nc2ccccc2F)cs1 [Compound 1179] = 0%

Fill in: giant foxtail (Setaria faberii) pest or weed control at 500 g/ha for CN1C[C@H](c2cc(C(F)F)cs2)[C@@H](C(=O)Nc2cccc(F)c2F)C1=O [Compound 1121] = 90%

Fill in: giant foxtail (Setaria faberii) pest or weed control at 500 g/ha for CSc1ccccc1NC(=O)[C@H]1C(=O)N(C)C[C@@H]1c1ccc(OC(F)F)cc1 [Compound 1212] = 90%

Fill in: giant foxtail (Setaria faberii) pest or weed control at 500 g/ha for CN1C[C@H](c2cscn2)[C@@H](C(=O)Nc2cccc(F)c2F)C1=O [Compound 1113] = 0%

Fill in: giant foxtail (Setaria faberii) pest or weed control at 500 g/ha for CN1C[C@H](c2csc3ccccc23)[C@@H](C(=O)Nc2ccccc2F)C1=O [Compound 1114] = 90%

Fill in: giant foxtail (Setaria faberii) pest or weed control at 500 g/ha for CSc1ccccc1NC(=O)[C@H]1C(=O)N(C)CC[C@@H]1c1ccc(C)cc1 [Compound 1222] = 70%

Fill in: giant foxtail (Setaria faberii) pest or weed control at 500 g/ha for CCc1cc([C@H]2CN(C)C(=O)[C@@H]2C(=O)Nc2cccc(F)c2F)cs1 [Compound 1157] = 90%

Fill in: giant foxtail (Setaria faberii) pest or weed control at 500 g/ha for CSc1ccccc1NC(=O)[C@H]1C(=O)N(C)CC[C@@H]1c1ccc(C(F)(F)F)cc1 [Compound 1227] = 0%

Fill in: giant foxtail (Setaria faberii) pest or weed control at 500 g/ha for CSc1ccccc1NC(=O)[C@H]1C(=O)N(C)C[C@@H]1c1ccc(F)cc1 [Compound 1236] = 90%

Fill in: giant foxtail (Setaria faberii) pest or weed control at 500 g/ha for O=C1NC[C@H](c2cccc(I)c2)[C@H]1C(=O)Nc1ccccc1F [Compound 1160] = 90%

For the next question, use this compound.
Fill in: giant foxtail (Setaria faberii) pest or weed control at 500 g/ha for CN1CC(c2ccccc2OC(F)(F)C(F)F)C(C(=O)Nc2cccc(F)c2F)C1=O (centres unmarked) [Compound 1056] = 20%
